system: NCI-H460 lung; assay: NCI tumour cell line growth inhibition, 48 h
measured.quantity: TGI

# compound, tested.system, measured.quantity, meas.value
records = [
    ("CSC(=NC(=O)c1ccccc1Cl)SCCSC(=NC(=O)c1ccccc1Cl)SC", "NCI-H460 lung", "TGI", "> 100 µM"),
    ("O=C(O)c1nc2cc(Cl)ccc2[nH]c1=O", "NCI-H460 lung", "TGI", "> 100 µM"),
    ("NCCCCC(NC(=O)C(N)CCCN=C(N)N)C(=O)NC(CCCCN)C(=O)NC(CCCN=C(N)N)C(=O)NC(CCCN=C(N)N)C(=O)NC(CCC(N)=O)C(=O)NC(CCCN=C(N)N)C(=O)NC(CCCN=C(N)N)C(=O)NC(CCCN=C(N)N)C(=O)NCC(=O)NCC(=O)O (stereo not drawn)", "NCI-H460 lung", "TGI", "> 50 µM"),
    ("O=S(=O)(O)c1ccc(N=Nc2ccccc2)cc1", "NCI-H460 lung", "TGI", "> 100 µM"),
    ("CN1C(=O)CCC(N2C(=O)c3cccc(NCCOCCOCCNC(=O)c4cc5c(o4)C(=O)c4ccccc4C5=O)c3C2=O)C1=O (stereo not drawn)", "NCI-H460 lung", "TGI", "2.97 µM"),
    ("CCn1c(SCC(=O)N/N=C2\\SCC(=O)N2c2ccc(C)cc2)nc2ccccc2c1=O", "NCI-H460 lung", "TGI", "57.4 µM"),
    ("CC(C)(C)C1=C(Br)C(F)(C(C)(C)C)OP1(=O)c1ccccc1 (stereo not drawn)", "NCI-H460 lung", "TGI", "35.6 µM"),
    ("COC(=O)C(CNC(=O)/C=C/c1ccc(OC)c(OC)c1)NC(=O)/C=C/c1ccc(OC)c(OC)c1 (stereo not drawn)", "NCI-H460 lung", "TGI", "> 100 µM"),
]

====

test system: HOP-62 NSCLC; experiment: NCI tumour cell line growth inhibition, 48 h

# compound, TGI
records = [
    ("CC(=O)O.CN1[CH-]N(Cc2ccc(C#N)cc2)c2ccccc21.[Ag+]", "> 100 µM"),
    ("O=[N+]([O-])c1ccc(-c2csc(N=Nc3c(O)[nH]c4ccccc34)n2)cc1", "> 100 µM"),
    ("C=C(C)[C@@H]1CC[C@]2(CO)CC[C@]3(C)[C@H](CC[C@@H]4[C@@]5(C)CCCNC(C)(C)[C@@H]5CC[C@]43C)[C@@H]12", "3.42 µM"),
    ("COC[C@H](NC(=O)c1cnc(C)s1)C(=O)N[C@@H](COC)C(=O)N[C@@H](Cc1ccccc1)C(=O)[C@@]1(C)CO1", "> 95.4 µM"),
    ("O=C(OC1=CCN(Br)C1=O)C1=C(O)C(=O)N(Br)C1", "51.7 µM"),
    ("COC(=O)C1=C(C)NC(=O)N2[C@@H](CCOCc3ccccc3)CC[C@@H]12", "> 50 µM"),
    ("COc1ccc2cc(-c3cnc4nonc4n3)ccc2c1", "64 µM"),
    ("CCOC(=O)c1[nH]c2cc(Cl)ccc2c1[C@@H](C(=O)NC(C)(C)C)N(CC)C(=O)CCCCC#Cc1cccc2c1CN(C1CCC(=O)NC1=O)C2=O (some centres undefined)", "6.81 µM"),
    ("CN(C)c1ccc(/C=c2\\sc3nnc(-c4ccco4)n3c2=O)cc1", "> 100 µM"),
]
